Exercise: state measured survival for each of the molecules provided.
- Test system: Wild type
- protocol summary: S. aureus survival, RN4220 and DeltatarO strains – OD600, teichoic acid synthesis inhibitors, primary screen (AID 463173)
- condition set: S. aureus RN4220 wild type/DeltatarO growth, OD600, 18 h, hits give low values, screened at 18.75 µg/mL (by protocol)
Among all 52,000 compounds or so, about 1,700 (3.3%) were called active. The full list was thinned out, with actives kept by preference.
One number for each entry, in %.

// solved cases for survival follow
| molecule | survival [%] |
| --- | --- |
| COc1ccccc1-c1c(C)nn2c(N3CCN(c4ccc(F)cc4)CC3)cc(C)nc12 | 88 |
| CCOC(=O)n1c(SCC)nc2ccccc21 | 104 |
| COc1ccc(N2CCN(c3ccc(-c4nc(-c5ccccc5C)no4)cc3[N+](=O)[O-])CC2)cc1 | 88 |
| O=C(CN1CCC(O)(c2ccccc2)CC1)NC1CCCCC1 | 111 |
| CCC(CC)C(=O)Nc1cc(-c2cccc(C)c2)nn1-c1ccccc1 | 69 |

For each of the items listed, what is its survival?
1. COc1cc(-c2nc(-c3cccc(Cl)c3)c(-c3ccccc3)[nH]2)cc(OC)c1OC
2. O=C(Nc1cccc2c1CCCC2)N1CCOc2ccc(Cl)cc21
3. Cc1nc(-c2ccccc2)sc1CCNS(=O)(=O)c1ccccc1
4. COCCNC(=O)CSc1nc(-c2ccccc2)[nH]c1-c1ccc(OC)cc1
5. COc1ccc(-c2nc(-c3ccccc3)c(-c3ccc(F)cc3)[nH]2)c(OC)c1C
6. Cc1cc(Cl)ccc1NC(=O)CN1C(=O)CSc2ccc(S(=O)(=O)N(C)C)cc21

1. 143
2. 83
3. 69
4. 74
5. 15
6. 68

For each of the items listed, what is its survival?
1. Cc1ccc(-c2onc(C)c2C)cc1S(=O)(=O)NCc1ccco1
2. CCN(CC)C(=O)C(C(F)(F)F)C(F)(F)F
3. COc1cc(/C=C(\C#N)c2nc3ccccc3[nH]2)ccc1OCc1cccc(C(F)(F)F)c1
4. COc1cc(-c2nc(SCC(=O)Nc3ccc(C)cc3)c(-c3ccc(F)cc3)[nH]2)cc(OC)c1OC
5. Cc1ccc(CNC(=O)Nc2cc(C(=O)NCc3cccc(F)c3)ccc2N2CCCC2)cc1
6. CC(C)(C)C(=O)Nc1nnc2n1CCS2
7. O=C(C1CCN(c2nc3ccccc3[nH]2)CC1)N1CCN(c2cccc(Cl)c2)CC1

1. 112
2. 103
3. 66
4. 106
5. 128
6. 77
7. 0

For each of the items listed, what is its survival?
1. O=S(=O)(c1ccccc1)c1nc(-c2ccc(F)cc2)oc1N1CCCCCC1
2. CC(=O)Nc1ccc(S(=O)(=O)Nc2ccc(-c3cn4c(C)csc4n3)cc2)cc1
3. COc1ccc(S(=O)(=O)Nc2ccc(-c3cn4c(C)csc4n3)cc2)cc1
4. COc1cccc(CNC(=O)CC(c2ccc(F)cc2)N2Cc3ccccc3C2=O)c1 (configuration not stated)
5. CCC(=O)Nc1ccc(CC)cc1-c1nc2ccccc2n(CC(=O)Nc2ccccc2C)c1=O
6. O=C(NCC(c1ccco1)S(=O)(=O)c1cccs1)c1ccc(C(F)(F)F)cc1 (configuration not stated)
7. Cc1ccc2nc(N3CCC(C(=O)N4CCN(c5cccc(Cl)c5)CC4)CC3)[nH]c2c1
8. CCN1CCN(CCCNC(=O)Cn2c(-c3cccs3)cc3cc(F)ccc32)CC1

1. 19
2. 69
3. 78
4. 82
5. 88
6. 83
7. 74
8. 126

For each of the items listed, what is its survival?
1. CCS(=O)(=O)c1oc(-c2ccc(F)cc2)nc1S(=O)(=O)c1ccccc1
2. O=C1CC2C(=O)NCCN2C(=NC(=O)c2ccc(Cl)cc2)N1 (configuration not stated)
3. COc1ccc(-c2[nH]c(-c3ccccc3)nc2SCC(=O)NC2CCCC2)cc1
4. COc1cccc(CNC(=O)CCn2c(=O)c3cccn3c3cccnc32)c1
5. Cc1ccc(N2CCN(C(=O)c3cn(C)c4ccc(S(=O)(=O)N5CCC(C)CC5)cc4c3=O)CC2C)cc1 (configuration not stated)
6. COCCCNS(=O)(=O)c1cc(-c2onc(C)c2C)ccc1OC
7. Cc1ccc(C)n1-c1c(C(=O)NCC(C)c2ccccc2)sc2ncccc12 (configuration not stated)

1. -1
2. 100
3. 80
4. 87
5. 126
6. 111
7. 73

For each of the items listed, what is its survival?
1. CCOC(=O)c1c(S(=O)(=O)N2CCCC(C(=O)N3CCN(c4cc(C)ccc4C)CC3)C2)c(C)n(C)c1C (configuration not stated)
2. COc1ccc(NC(=O)CCc2nc3cccnc3n2-c2ccccc2)c(OC)c1
3. COc1ccc(CCNS(=O)(=O)c2cc(-c3onc(C)c3C)ccc2OC)cc1OC
4. CN(Cc1ccccc1)c1ccc(-c2nc(-c3ccccn3)no2)cc1[N+](=O)[O-]
5. COc1ccc(N2CCN(c3oc(/C=C/c4ccc(F)cc4)nc3C#N)CC2)cc1
6. Cc1[nH]c(=O)[nH]c(=O)c1CSCC(=O)O
7. O=S(=O)(c1ccccc1)c1nc(-c2ccc(F)cc2)oc1NCc1ccccc1

72
68
-3
67
84
108
84

For each of the items listed, what is its survival?
1. COc1ccc(-c2onc(C)c2C)cc1S(=O)(=O)NCCc1ccccc1
2. COc1cc(-c2nc(-c3ccccc3)c(-c3ccc(Br)cc3)[nH]2)cc(OC)c1O

1. 57
2. 5
